Target of assay: T1, eIF4E (untagged, co-expressed with p20);His6x-p20 6x mutant (Saccharomyces cerevisiae;Saccharomyces …, UniProt P07260;P12962 1-213;1-161, |R55L;R56L;R57L;H60L;H61L;H62L)
T1 sequence 1: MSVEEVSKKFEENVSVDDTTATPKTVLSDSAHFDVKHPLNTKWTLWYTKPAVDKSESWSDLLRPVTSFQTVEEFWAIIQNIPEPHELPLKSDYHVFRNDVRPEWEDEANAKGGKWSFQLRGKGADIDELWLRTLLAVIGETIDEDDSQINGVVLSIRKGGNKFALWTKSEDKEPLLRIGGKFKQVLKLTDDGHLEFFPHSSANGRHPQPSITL
T1 sequence 2: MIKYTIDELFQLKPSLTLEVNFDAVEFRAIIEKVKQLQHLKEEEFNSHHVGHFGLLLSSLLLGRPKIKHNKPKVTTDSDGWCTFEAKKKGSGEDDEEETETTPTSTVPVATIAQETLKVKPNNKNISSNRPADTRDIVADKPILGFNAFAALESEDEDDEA
Assay: MST; Buffer A: 10 mM sodium phosphate pH 7.5, 100 mM NaCl, 2.5 mM MgCl2, 1 mM DTT, 0.05% NP40; MST at 25 C (proteins for capped RNA MST RED-tris-NTA labeled in buffer B: 20 mM HEPES-KOH pH 7.5, 50 mM NaCl, 1 mM DTT); EMSA 1.5% agarose, 1x TBE, temperature not stated
Applied conditions: protein: recombinant;recombinant; tags: ;N-terminal His6x; copies: 1;1; label: 3' FAM
Measured attribute: pKd
Please keep in mind that pKd is minus log10 of the molar concentration; only the number is needed.

-- ask Look up pKd for this binder: GUAUUACAAGAAACAAAAAUUCAAGUAAAUAACAGAUAAU (ssRNA) [uncapped SSA1 5'UTR RNA, 40 nt]
-- reply 4.45
